The sequences listed here are annotated with their sensor-assay potency score (higher = more potent).
Target: MST4
Experiment: pooled miR-30 sensor sort-seq; sequence = guide strand; note: reference of the scale not given here
Details: shRNA
Just the number.

Past entries and their recorded results:
>  <SEQUENCE_TEXT>
TTGCTTTAAATTTCTAACCATG

>  <VALUE_MEASURED>
-1.11

$$$$
>  <SEQUENCE_TEXT>
TTTAATAGCAACGACTTGCTGG

>  <VALUE_MEASURED>
0.885

$$$$
>  <SEQUENCE_TEXT>
TAGTTTAATAGCTTCTTCCAAA

>  <VALUE_MEASURED>
-1.19

$$$$

Task: What measured sensor-assay potency score (higher = more potent) goes with `TTTGTGAACAGTTCTTCTGGAT` ?
Result: 0.425

Task: What do you have for `TATCATAGACAAACAACTCAGG` ?
Result: -0.251

Task: What do you have for `TTCAACATTACCAAACACCTAT` ?
Result: -0.0444

Task: What do you have for `TAAACTGTAATTGTGTTTCAGT` ?
Result: 0.0353

Task: What do you have for `TATAGGACAATTTATTACCATG` ?
Result: -1.23

---

Biological target: EFNB2
Test: pooled miR-30 sensor sort-seq; sequence = guide strand
Details: shRNA
The sequences listed here are annotated with their sensor-assay potency score (higher = more potent).
Just the number.

>  <SEQUENCE_TEXT>
TATCTGTGGGTATAGTACCAGT

>  <VALUE_MEASURED>
-1.11

$$$$

Task: What measured sensor-assay potency score (higher = more potent) goes with `TTTTCTTCCTGCACATCGCTAT` ?
Result: 0.000564

Task: What do you have for `TTTATACAAAACATCTTGCTTA` ?
Result: 0.624

---

The sequences listed here are annotated with their sensor-assay potency score (higher = more potent).
Molecular target: IL18RAP
Experiment: pooled miR-30 sensor sort-seq; sequence = guide strand
Conditions: shRNA
Just the number.

Past entries and their recorded results:
>  <SEQUENCE_TEXT>
TTTCTGTTCTACTGAGTCCTTT

>  <VALUE_MEASURED>
-0.456

$$$$
>  <SEQUENCE_TEXT>
TTGTTTTCTAAAACATCAGGAA

>  <VALUE_MEASURED>
-0.521

$$$$
>  <SEQUENCE_TEXT>
TCTCACTTGAACAACAGCTCTG

>  <VALUE_MEASURED>
0.299

$$$$
>  <SEQUENCE_TEXT>
TTGTAGTTCAAAGATACTGGGT

>  <VALUE_MEASURED>
-0.0545

$$$$
>  <SEQUENCE_TEXT>
TCATCTTGACACAACAGGCTAC

>  <VALUE_MEASURED>
0.09

$$$$

Task: What measured sensor-assay potency score (higher = more potent) goes with `TTTCAGTGTTTGATCATCCAAG` ?
Result: -0.42

---

Biological target: FAM113A
Experiment: pooled miR-30 sensor sort-seq; sequence = guide strand
Settings: shRNA
METRIC: sensor-assay potency score (higher = more potent)
Just the number.

Past entries and their recorded results:
>  <SEQUENCE_TEXT>
TTGAGCAGCGACCATATCTGGA

>  <TARGET_OF_ASSAY>
FAM113A

>  <VALUE_MEASURED>
-0.708

$$$$
>  <SEQUENCE_TEXT>
TTGATGATCACCAGGTCCGGGG

>  <TARGET_OF_ASSAY>
FAM113A

>  <VALUE_MEASURED>
-0.983

$$$$
>  <SEQUENCE_TEXT>
TAGCACTGTAGAAGTTCCCTTC

>  <TARGET_OF_ASSAY>
FAM113A

>  <VALUE_MEASURED>
0.54

$$$$

Task: What measured sensor-assay potency score (higher = more potent) goes with `TGGAAGTGGACCATGTCGCTTC` ?
Result: -0.111
